src = patent US10065941B2

- system.name: human P2X3 receptor (Homo sapiens (Human), UniProt P56373)
- Sequence (P56373 whole entry): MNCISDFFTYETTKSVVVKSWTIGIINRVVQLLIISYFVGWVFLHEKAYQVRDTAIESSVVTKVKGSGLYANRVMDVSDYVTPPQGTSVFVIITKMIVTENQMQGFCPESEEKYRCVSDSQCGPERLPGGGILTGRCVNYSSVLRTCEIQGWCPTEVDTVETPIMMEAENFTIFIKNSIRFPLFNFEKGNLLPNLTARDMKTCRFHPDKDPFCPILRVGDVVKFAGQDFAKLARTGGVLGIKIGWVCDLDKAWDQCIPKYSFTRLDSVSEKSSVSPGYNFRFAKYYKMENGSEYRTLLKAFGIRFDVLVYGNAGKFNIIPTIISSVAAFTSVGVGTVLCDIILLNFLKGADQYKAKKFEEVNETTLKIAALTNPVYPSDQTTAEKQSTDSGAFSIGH
- measurement.description: Evaluation of human P2X3 receptor inhibitory activity (Test Example 1)
- experimental.setup: C6BU-1 cell transfected with human P2X3 receptor gene, FLIPR 384
// assign rule met if IC50 falls strictly below 7 nM, else rule not met (ties count as rule not met)

{"columns": ["sample.smiles", "assigned.category"],
 "data": [
  ["O=C(O)C1(Cn2c(=O)[nH]/c(=N\\c3ccc(Oc4ncccc4F)cc3)n(Cc3ccc(Cl)cc3)c2=O)CC1", "rule not met"],
  ["Cc1ccc(Cn2c(=O)n([C@@H](C)[C@@H](C)C(=O)O)c(=O)[nH]/c2=N\\c2ccc(Oc3ncccc3F)cc2)cc1", "rule not met"],
  ["C[C@@H](C(=O)O)[C@H](C)n1c(=O)[nH]/c(=N\\c2ccc(Oc3cnc(C#N)nc3)cc2)n(Cc2ccc(Cl)cc2)c1=O", "rule met"],
  ["CC(C)n1c(=O)[nH]/c(=N\\c2ccc(Oc3cccc(C#N)n3)c(Cl)c2)n(Cc2ccc(Cl)cc2)c1=O", "rule not met"],
  ["O=C(Cn1c(=O)[nH]/c(=N\\c2ccc(Oc3ccccn3)cc2)n(Cc2ccc(Cl)cc2)c1=O)NCCO", "rule met"]
]}
